Taken from patent US9399646B2.

- EXPERIMENTAL_SYSTEM: ER-α in MCF-7 cells (Homo sapiens, UniProt P03372)
- Sequence (P03372 whole entry): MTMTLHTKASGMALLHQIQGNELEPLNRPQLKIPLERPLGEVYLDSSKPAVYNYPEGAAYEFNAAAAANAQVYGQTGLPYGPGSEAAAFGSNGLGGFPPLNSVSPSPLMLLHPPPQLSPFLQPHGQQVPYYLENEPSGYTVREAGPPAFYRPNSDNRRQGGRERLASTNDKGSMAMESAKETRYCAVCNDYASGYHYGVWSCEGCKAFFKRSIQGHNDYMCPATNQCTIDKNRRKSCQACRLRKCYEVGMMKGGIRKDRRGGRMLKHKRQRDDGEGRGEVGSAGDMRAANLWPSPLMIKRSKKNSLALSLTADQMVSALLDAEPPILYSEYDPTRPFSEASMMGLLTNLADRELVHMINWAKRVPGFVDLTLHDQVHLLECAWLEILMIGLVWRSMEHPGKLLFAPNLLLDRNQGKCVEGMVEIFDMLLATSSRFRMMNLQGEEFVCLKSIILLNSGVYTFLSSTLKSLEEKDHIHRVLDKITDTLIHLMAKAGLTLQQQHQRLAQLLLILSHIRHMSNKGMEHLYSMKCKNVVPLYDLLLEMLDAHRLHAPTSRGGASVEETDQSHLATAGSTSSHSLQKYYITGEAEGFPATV
- ASSAY_NAME: Breast cancer cell ER-α in cell western assay (SP1)
- Format: cell-based
- Design: endogenous in cells; host or cells: MCF-7
- SETUP_CONDITIONS: SP1 antibody, 4 or 24 hr post compound addition, read-out: ER-α In Cell Western Assay (SP1) IC50
PROPERTY_LABEL: DC50

As a guide, the following entries are already answered.
- MOLECULE: "CC/C(=C(/c1ccc(/C=C/C(=O)O)cc1)c1ccc2[nH]ncc2c1)c1cccc(Oc2ccc(C)nc2)c1 [Compound 382]"
  DC50: "≤ 100 nM"
- MOLECULE: "CC/C(=C(/c1ccc(/C=C/C(=O)O)cc1)c1ccc2[nH]ncc2c1)c1ccc(N(C)C)cc1 [Compound 62]"
  DC50: "> 100 nM"
- MOLECULE: "O=C(O)/C=C/c1ccc(/C(=C(\\c2ccc(F)cc2Cl)C2CC2)c2cccc3[nH]ncc23)cc1 [Compound 73]"
  DC50: "≤ 100 nM"
- MOLECULE: "CC/C(=C(/c1ccc(/C=C/C(=O)O)cc1)c1ccc2c(=O)[nH]ccc2c1)c1ccccc1 [Compound 97]"
  DC50: "> 100 nM"
- MOLECULE: "CC/C(=C(/c1ccc(/C=C/C(=O)Nc2nn[nH]n2)cc1)c1ccc2[nH]ncc2c1)c1ccc(F)cc1Cl [Compound 425]"
  DC50: "≤ 100 nM"

Query: Report DC50 for CC/C(=C(/c1ccc(/C=C/c2noc(=S)[nH]2)cc1)c1ccc2[nH]ncc2c1)c1ccc(F)cc1Cl [Compound 441] please.
Response: ≤ 100 nM

Query: Report DC50 for CC/C(=C(/c1ccc(/C=C/C(=O)O)cc1)c1ccc2[nH]ncc2c1)c1ccc(-c2cnccn2)cc1 [Compound 389] please.
Response: ≤ 100 nM

Query: Report DC50 for CC/C(=C(/c1ccc(/C=C/C(=O)N(C)OC)cc1)c1ccc2[nH]ncc2c1)c1ccc(F)cc1Cl [Compound 422] please.
Response: ≤ 100 nM

----------
- EXPERIMENTAL_SYSTEM: ER-α in MCF-7 cells (Homo sapiens, UniProt P03372)
- ASSAY_NAME: Breast cancer cell ER-α in cell western assay (SP1)
- Type: cell-based
- Design: endogenous in cells; host or cells: MCF-7
- SETUP_CONDITIONS: MCF7, SP1 antibody, 4 or 24 hr post compound addition, read-out: ER-α In Cell Western Assay (SP1) Max Response
PROPERTY_LABEL: Emax

- SMILES_DATA: "CC/C(=C(/c1ccc(/C=C/C(=O)O)cc1)c1cnc2[nH]ccc2c1)c1ccccc1"
  VALUE_MEASURED: "≥ 40%"

Query: Provide the documented Emax with ER-α in MCF-7 cells (Homo sapiens, UniProt P03372) as the system for `CC/C(=C(/c1ccc(/C=C/C(=O)O)cc1)c1ccc2[nH]ncc2c1)c1cccnc1C`
Response: ≥ 40%

Query: Provide the documented Emax with ER-α in MCF-7 cells (Homo sapiens, UniProt P03372) as the system for `CC/C(=C(/c1ccc(/C=C/C(=O)O)cc1)c1ccc2[nH]ncc2c1)c1ccc(Oc2ccccc2)c(F)c1`
Response: ≥ 40%

Query: Provide the documented Emax with ER-α in MCF-7 cells (Homo sapiens, UniProt P03372) as the system for `CC/C(=C(/c1ccc(/C=C/C(=O)O)cc1)c1ccc(O)nc1)c1ccccc1`
Response: ≥ 40%

----------
Reported Emax is given for each of the following compounds.
- EXPERIMENTAL_SYSTEM: ER-α in MCF-7 cells (Homo sapiens)
- ASSAY_NAME: Breast cancer cell ER-α in cell western assay (SP1)
- Type: cell-based
- Design: endogenous in cells; host or cells: MCF-7
- SETUP_CONDITIONS: MCF7, SP1 antibody, 4 or 24 hr post compound addition, read-out: ER-α In Cell Western Assay (SP1) Max Response

- SMILES_DATA: "CC/C(=C(/c1ccc(/C=C/C(=O)O)cc1)c1ccc2c(c1)OCO2)c1ccccc1"
  Emax: "≥ 40%"
- SMILES_DATA: "CC/C(=C(/c1ccc(/C=C/C(=O)O)cc1)c1ccc2[nH]nnc2c1)c1ccc(F)cc1Cl"
  Emax: "≥ 40%"
- SMILES_DATA: "CC/C(=C(/c1ccc(/C=C/C(=O)O)cc1)c1ccc2[nH]ncc2c1)c1cccc(Oc2cnccn2)c1"
  Emax: "≥ 40%"
- SMILES_DATA: "CC/C(=C(/c1ccc(/C=C/C(=O)O)cc1)c1ccc2[nH]ncc2c1)c1cnccc1C"
  Emax: "≥ 40%"
- SMILES_DATA: "CC/C(=C(/c1ccc(/C=C/C(=O)O)cc1)c1cc(F)c2[nH]ccc2c1)c1ccc(F)cc1Cl"
  Emax: "≥ 40%"
- SMILES_DATA: "CC/C(=C(/c1ccc(/C=C/C(=O)O)cc1)c1ccc2[nH]ncc2c1)c1ccncc1C#N"
  Emax: "≥ 40%"
- SMILES_DATA: "CC/C(=C(/c1ccc(/C=C/C(=O)O)cc1)c1cnn2ccccc12)c1ccccc1"
  Emax: "≥ 40%"
- SMILES_DATA: "CC/C(=C(/c1ccc(/C=C/C(=O)O)cc1)c1ccc2[nH]ncc2c1)c1cccc(-c2ccccn2)c1"
  Emax: "≥ 40%"
- SMILES_DATA: "CC/C(=C(/c1ccc(/C=C/C(=O)O)cc1)c1ccc2c(c1)C(=O)NC2)c1ccccc1"
  Emax: "≥ 40%"
- SMILES_DATA: "CC/C(=C(/c1ccc(/C=C/C(=O)O)cc1)c1ccc2scnc2c1)c1cscc1C"
  Emax: "≥ 40%"

Query: Report Emax for `CC/C(=C(/c1ccc(/C=C/C(=O)O)cc1)c1ccc2[nH]ncc2c1)c1ccc(N(C)c2ccccc2)cc1` please.
Response: ≥ 40%

Query: Report Emax for `CC/C(=C(/c1ccc(/C=C/C(=O)O)cc1)c1ccc2[nH]ncc2c1F)c1cccc(OC2CCOCC2)c1` please.
Response: ≥ 40%

Query: Report Emax for `CC/C(=C(/c1ccc(/C=C/C(=O)O)cc1)c1cccc2[nH]ncc12)c1ccc(F)cc1Cl` please.
Response: ≥ 40%

----------
Reported DC50 is given for each of the following molecules.
- EXPERIMENTAL_SYSTEM: ER-α in MCF-7 cells (Homo sapiens, UniProt P03372)
- ASSAY_NAME: Breast cancer cell ER-α in cell western assay (SP1)
- Type: cell-based
- Design: endogenous in cells; host or cells: MCF-7
- SETUP_CONDITIONS: SP1 antibody, 4 or 24 hr post compound addition, read-out: ER-α In Cell Western Assay (SP1) IC50

As a guide, the following entries are already answered.
- MOLECULE: "CC/C(=C(/c1ccc(/C=C/C(=O)O)cc1)c1ccc2[nH]ncc2c1)c1ccccc1Oc1ccccc1"
  VALUE_MEASURED: "≤ 100 nM"
- MOLECULE: "CC/C(=C(/c1ccc(/C=C/C(=O)NS(C)(=O)=O)cc1)c1ccc2[nH]ncc2c1)c1ccc(F)cc1Cl"
  VALUE_MEASURED: "≤ 100 nM"
- MOLECULE: "CC/C(=C(/c1ccc(/C=C/C(=O)O)cc1)c1ccc2c[nH]c(=O)cc2c1)c1ccccc1"
  VALUE_MEASURED: "> 100 nM"
- MOLECULE: "CC/C(=C(/c1ccc(/C=C/C(=O)O)cc1)c1ccc2sc(C)nc2c1)c1ccccc1"
  VALUE_MEASURED: "> 100 nM"
- MOLECULE: "CC/C(=C(/c1ccc(/C=C/C(=O)O)cc1)c1ccn2nncc2c1)c1ccccc1"
  VALUE_MEASURED: "> 100 nM"

Query: Report DC50 for `CC/C(=C(/c1ccc(/C=C/C(=O)O)cc1)c1ccc2c(cnn2C(=O)C(C)(C)C)c1)c1ccc(F)cc1Cl` please.
Response: ≤ 100 nM

Query: Report DC50 for `CC/C(=C(/c1ccc(/C=C/C(=O)O)cc1)c1ccc2[nH]ncc2c1)c1cc(Oc2ccccc2)ccc1C` please.
Response: ≤ 100 nM

Query: Report DC50 for `CC/C(=C(/c1ccc(/C=C/C(=O)O)cc1)c1ccc2[nH]ncc2c1)c1ccccc1-c1ccccc1` please.
Response: > 100 nM

Query: Report DC50 for `Cc1cscc1/C(=C(\c1ccc(/C=C/C(=O)O)cc1)c1ccc2[nH]nc(F)c2c1)C1CCC1` please.
Response: ≤ 100 nM

Query: Report DC50 for `CC/C(=C(/c1ccc(/C=C/C(=O)O)cc1)c1ccc2ocnc2c1)c1ccccc1` please.
Response: > 100 nM

Query: Report DC50 for `O=C(O)/C=C/c1ccc(/C(=C(\c2ccccc2)C2CCC2)c2ccc3scnc3c2)cc1` please.
Response: ≤ 100 nM

Query: Report DC50 for `CC/C(=C(/c1ccc(/C=C/C(=O)O)cc1)c1ccc2c(c1)C(=O)NC2)c1ccccc1` please.
Response: > 100 nM

Query: Report DC50 for `CC/C(=C(/c1ccc(/C=C/C(=O)O)cc1)c1ccc2c(c1)SCC(=O)N2)c1ccccc1` please.
Response: > 100 nM

Query: Report DC50 for `CC/C(=C(/c1ccc(/C=C/C(=O)O)cc1)c1ccc2[nH]ncc2c1)c1cccc(OCc2ccccc2)c1` please.
Response: ≤ 100 nM

Query: Report DC50 for `CC/C(=C(/c1ccc(/C=C/C(=O)O)cc1)c1ccc2[nH]ncc2c1)c1cccc(Oc2ccc(F)cc2)c1` please.
Response: ≤ 100 nM

Query: Report DC50 for CC/C(=C(/c1ccc2c(c1)CC(C(=O)O)C2)c1ccc2[nH]ncc2c1)c1ccccc1 (stereo not drawn) please.
Response: > 100 nM

Query: Report DC50 for `CC/C(=C(/c1ccc(/C=C/C(=O)O)cc1)c1ccc2[nH]ncc2c1F)c1cccc(Oc2ccc(S(C)(=O)=O)nc2)c1` please.
Response: ≤ 100 nM

Query: Report DC50 for `CC/C(=C(/c1ccc(/C=C/C(=O)O)cc1)c1ccc2nccn2c1)c1ccc(Cl)cc1Cl` please.
Response: ≤ 100 nM

Query: Report DC50 for `CC/C(=C(/c1ccc(/C=C/C(=O)O)cc1)c1ccc2[nH]ncc2c1)c1cncnc1` please.
Response: > 100 nM

Query: Report DC50 for `CC/C(=C(/c1ccc(/C=C/C(=O)O)cc1)c1cc(F)cc2[nH]ncc12)c1ccccc1` please.
Response: ≤ 100 nM

Query: Report DC50 for `CNC(=O)/C=C/c1ccc(/C(=C(\c2ccccc2)C2CCC2)c2ccc3[nH]ncc3c2)cc1` please.
Response: ≤ 100 nM

Query: Report DC50 for `CC/C(=C(/c1ccc(/C=C/C(N)=O)cc1)c1ccc2scnc2c1)c1ccccc1` please.
Response: ≤ 100 nM

Query: Report DC50 for `CC/C(=C(/c1ccc(/C=C/C(=O)NC)cc1)c1ccc2scnc2c1)c1ccccc1` please.
Response: ≤ 100 nM

Query: Report DC50 for `CC/C(=C(/c1ccc(/C=C/C(=O)O)cc1)c1ccnc2[nH]ncc12)c1ccccc1` please.
Response: ≤ 100 nM

Query: Report DC50 for `CC/C(=C(/c1ccc(/C=C/C(=O)O)cc1)c1ccc2[nH]ncc2c1)c1cccc(Oc2ccccn2)c1` please.
Response: ≤ 100 nM

Query: Report DC50 for `CC/C(=C(/c1ccc(/C=C/C(=O)O)cc1)c1ccc2[nH]ncc2c1)c1ccc(Oc2ccccn2)cc1` please.
Response: ≤ 100 nM

Query: Report DC50 for `CC/C(=C(/c1ccc(/C=C/C(=O)O)cc1)c1ccc2[nH]ncc2c1)c1cccc(Oc2ccccc2C)c1` please.
Response: ≤ 100 nM

Query: Report DC50 for `CC/C(=C(/c1ccc(/C=C/C(=O)O)cc1)c1ccc2[nH]ncc2c1)c1ccc(Oc2ccccc2)c(F)c1` please.
Response: ≤ 100 nM

Query: Report DC50 for `CC/C(=C(/c1ccc(/C=C/C(=O)O)cc1)c1ccc2[nH]ncc2c1)c1ccc2nccnc2c1` please.
Response: ≤ 100 nM

Query: Report DC50 for `CC/C(=C(/c1ccc(-c2cc(O)on2)cc1)c1ccc2[nH]ncc2c1)c1ccc(F)cc1Cl` please.
Response: ≤ 100 nM
